Would you mind telling me the reported melting point of each entry?

What melting point value was documented for this compound, O=c1c(O)c(-c2ccc(O)c(O)c2)oc2cc(OCc3ccc(Cl)cc3)cc(O)c12 [Compound 3o] ? 266 to 267 °C

Also check O=c1c(O)c(-c2ccc(O)c(O)c2)oc2cc(OCc3cccc([N+](=O)[O-])c3)cc(O)c12 [Compound 3m] 264 to 266 °C

Moving on to the next compound: Cc1ccccc1COc1cc(O)c2c(=O)c(O)c(-c3ccc(O)c(O)c3)oc2c1 [Compound 3e] 241 to 242 °C

Same question, O=C(Oc1c(-c2ccc(O)c(O)c2)oc2cc(O)cc(O)c2c1=O)c1ccc(Cl)cc1 [Compound 4o] this time 194 to 195 °C

Query O=c1c(O)c(-c2ccc(O)c(O)c2)oc2cc(OCc3ccccc3)cc(O)c12 [Compound 3a] next 255 to 257 °C

N#Cc1ccccc1COc1cc(O)c2c(=O)c(O)c(-c3ccc(O)c(O)c3)oc2c1 [Compound 3f] ? 248 to 249 °C

What do we get for N#Cc1ccc(C(=O)Oc2c(-c3ccc(O)c(O)c3)oc3cc(O)cc(O)c3c2=O)cc1 [Compound 4n] ? 196 to 197 °C

Next compound: Nc1cccc(C(=O)Oc2c(-c3ccc(O)c(O)c3)oc3cc(O)cc(O)c3c2=O)c1 [Compound 4g] 216 to 217 °C

Also, CC(C)Oc1c(-c2ccc(O)c(O)c2)oc2cc(O)cc(O)c2c1=O [Compound 12b] please. 259 to 262 °C

Queued: O=c1c(O)c(-c2ccc(O)c(O)c2)oc2cc(OCc3cccc(F)c3)cc(O)c12 [Compound 3h] 243 to 245 °C

Quick one: COc1ccc(C(=O)Oc2c(-c3ccc(O)c(O)c3)oc3cc(O)cc(O)c3c2=O)cc1 [Compound 4m] 194 to 195 °C

Queued: O=c1c(O)c(-c2ccc(O)c(O)c2)oc2cc(OCc3ccccc3Br)cc(O)c12 [Compound 3d] 248 to 249 °C

Moving on to the next compound: Cc1ccc(COc2cc(O)c3c(=O)c(O)c(-c4ccc(O)c(O)c4)oc3c2)cc1 [Compound 3q] 261 to 264 °C

Also O=c1c(O)c(-c2ccc(O)c(O)c2)oc2cc(OCc3ccccc3Cl)cc(O)c12 [Compound 3c] ? 253 to 254 °C

Query O=C(Oc1c(-c2ccc(O)c(O)c2)oc2cc(O)cc(O)c2c1=O)c1ccccc1 [Compound 4a] next 173 to 174 °C

Note, next up: O=c1c(O)c(-c2ccc(O)c(O)c2)oc2cc(OCc3ccc(F)cc3)cc(O)c12 [Compound 3n] 254 to 255 °C

And for Cc1cccc(COc2cc(O)c3c(=O)c(O)c(-c4ccc(O)c(O)c4)oc3c2)c1 [Compound 3k] ? 224 to 226 °C

----------
tested on: HCV infectious virus J399EM; test: Anti-HCV assay in authentic HCV infection/replication system (J399EM EGFP reporter virus) in Huh7.5.1 cells; assay type: cell-based, hepatitis C virus (JFH1-derived, genotype 2a); details: ratio of CC50 to EC50, Huh7.5.1 cells
experimental endpoint: SI (selectivity index)
A bare number is all that is needed in reply.

Which SI (selectivity index) value is on record for O=c1c(O)c(-c2ccc(O)c(O)c2)oc2cc(OCc3ccc(Cl)cc3)cc(O)c12 ? 3.9

Item: O=c1c(O)c(-c2ccc(O)c(O)c2)oc2cc(OCc3ccccc3[N+](=O)[O-])cc(O)c12 2.1
